# key: entry, value: Ki
test_system: human V1a receptor (Homo sapiens, UniProt P37288)
Construct: expressed in transfected cells; host or cells: HEK293 cells, transiently transfected; membranes prepared
Sequence (P37288 whole entry): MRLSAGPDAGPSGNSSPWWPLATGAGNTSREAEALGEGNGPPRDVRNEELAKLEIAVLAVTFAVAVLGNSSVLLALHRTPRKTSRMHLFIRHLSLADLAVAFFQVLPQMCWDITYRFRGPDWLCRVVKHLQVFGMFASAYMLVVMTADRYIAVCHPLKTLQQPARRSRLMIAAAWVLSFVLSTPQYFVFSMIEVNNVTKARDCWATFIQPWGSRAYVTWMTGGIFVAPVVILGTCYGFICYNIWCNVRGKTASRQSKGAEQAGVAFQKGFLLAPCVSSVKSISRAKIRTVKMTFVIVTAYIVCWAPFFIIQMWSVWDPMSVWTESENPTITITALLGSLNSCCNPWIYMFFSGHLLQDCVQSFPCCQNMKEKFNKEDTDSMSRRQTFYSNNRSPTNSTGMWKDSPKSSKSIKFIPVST
procedure_summary: human V1a receptor binding (3H-Vasopressin SPA, HEK293 membranes)
test_parameters: membranes of HEK293 cells transiently transfected with human V1a receptor, Ki by Cheng-Prussoff, read-out: pKi (hV1a) (converted)
Structures can show the parent of a compound that is named as a salt.
Returns: string containing the number followed by the unit.

Solved entries:
molecule="Cc1cc([C@H]2CC[C@H](c3nnc4n3-c3ccc(F)cc3CNC4)CC2)no1 [Example 37]" endpoint_result="91.2 nM"
molecule="Cc1nc([C@H]2CC[C@H](c3nnc4n3-c3ccc(Cl)cc3CN(C)C4)CC2)ns1 (stereo in doubt) [Example 97]" endpoint_result="2.88 nM"
molecule="Cc1nc([C@H]2CC[C@H](c3nnc4n3-c3ccc(Cl)cc3CNC4)CC2)sc1Cl [Example 102]" endpoint_result="3.8 nM"

Lookup result for CCc1nc([C@H]2CC[C@@H](c3nnc4n3-c3ccc(Cl)cc3CNC4)CC2)no1 [Example 89, hydrochloride] ; measured Ki: 2750 nM

Lookup result for Cc1coc([C@H]2CC[C@H](c3nnc4n3-c3ccc(Cl)cc3CNC4)CC2)n1 [Example 5] ; measured Ki: 32.4 nM

Lookup result for Cc1cc([C@H]2CC[C@H](c3nnc4n3-c3ccc(Cl)cc3CN(C(=O)CO)C4)CC2)no1 [Example 32] ; measured Ki: 2.88 nM

Lookup result for CC(=O)N1Cc2cc(Cl)ccc2-n2c(nnc2[C@H]2CC[C@H](c3cc(C)on3)CC2)C1 [Example 31] ; measured Ki: 1.74 nM

Lookup result for Cc1onc([C@H]2CC[C@H](c3nnc4n3-c3ccc(Cl)cc3CNC4)CC2)c1C [Example 40] ; measured Ki: 4.79 nM

Lookup result for Cc1nnc([C@H]2CC[C@H](c3nnc4n3-c3ccc(Cl)cc3CN(C)C4)CC2)o1 [Example 65] ; measured Ki: 15.8 nM

Lookup result for Clc1ccc2c(c1)CNCc1nnc([C@H]3CC[C@H](n4cccn4)CC3)n1-2 [Example 110] ; measured Ki: 42.7 nM

----------
test_system: human V1a receptor (Homo sapiens, UniProt P37288)
Construct: expressed in transfected cells; host or cells: HEK293 cells, transiently transfected; membranes prepared
procedure_summary: human V1a receptor binding (3H-Vasopressin SPA, HEK293 membranes)
test_parameters: membranes of HEK293 cells transiently transfected with human V1a receptor, Ki by Cheng-Prussoff, read-out: pKi (hV1a) (converted)
endpoint_label: Ki (nM)
Kindly answer with a numeric value in nM, unit omitted.

Solved entries:
item_smiles=Clc1ccc2c(c1)CNCc1nnc([C@H]3CC[C@H](c4noc5c4CCCC5)CC3)n1-2 endpoint_result=5.89
item_smiles=Cc1coc([C@H]2CC[C@H](c3nnc4n3-c3ccc(Cl)cc3CN(C)C4)CC2)n1 endpoint_result=3.31

Consider the record given below.
Lookup result for `Cc1nc([C@H]2CC[C@H](c3nnc4n3-c3ccc(Cl)cc3CNC4)CC2)oc1C` ; measured Ki: 5.5

----------
test_system: human V1a receptor (Homo sapiens, UniProt P37288)
Construct: expressed in transfected cells; host or cells: HEK293 cells, transiently transfected; membranes prepared
procedure_summary: human V1a receptor binding (3H-Vasopressin SPA, HEK293 membranes)
test_parameters: membranes of HEK293 cells transiently transfected with human V1a receptor, Ki by Cheng-Prussoff, read-out: pKi (hV1a) (converted)
Method: The human V1a receptor was cloned by RT-PCR from total human liver RNA. The coding sequence was subcloned in an expression vector after sequencing to confirm the identity of the amplified sequence. […] Cell membranes were prepared from HEK293 cells transiently transfected with the expression vector and grown in 20 liter fermenters with the following protocol. […]
endpoint_label: Ki (nM)
Kindly answer with a numeric value in nM, unit omitted.

compound="CN1Cc2cc(Cl)ccc2-n2c(nnc2[C@H]2CC[C@H](n3cccn3)CC2)C1 [Example 111]" test_system="human V1a receptor (Homo sapiens, UniProt P37288)" endpoint_result=17
compound="Cc1nsc([C@H]2CC[C@H](c3nnc4n3-c3ccc(Cl)cc3CNC4)CC2)n1 [Example 70]" test_system="human V1a receptor (Homo sapiens, UniProt P37288)" endpoint_result=129
compound="CCc1cc([C@H]2CC[C@H](c3nnc4n3-c3ccc(Cl)cc3CN(C)C4)CC2)no1 [Example 53]" test_system="human V1a receptor (Homo sapiens, UniProt P37288)" endpoint_result=1.2
compound="Cc1noc([C@H]2CC[C@H](c3nnc4n3-c3ccc(Cl)cc3CN(C(=O)OC(C)(C)C)C4)CC2)n1 [Example 66]" test_system="human V1a receptor (Homo sapiens, UniProt P37288)" endpoint_result=2.88
compound="Cc1onc([C@H]2CC[C@H](c3nnc4n3-c3ccc(Cl)cc3CN(C(=O)OC(C)(C)C)C4)CC2)c1F [Example 45]" test_system="human V1a receptor (Homo sapiens, UniProt P37288)" endpoint_result=0.724
compound="Cc1nc([C@H]2CC[C@H](c3nnc4n3-c3ccc(Cl)cc3CN(C(=O)OC(C)(C)C)C4)CC2)oc1C [Example 10]" test_system="human V1a receptor (Homo sapiens, UniProt P37288)" endpoint_result=0.525
compound="Clc1ccc2c(c1)CNCc1nnc([C@H]3CC[C@@H](n4cccn4)CC3)n1-2 [Example 113]" test_system="human V1a receptor (Homo sapiens, UniProt P37288)" endpoint_result=794
compound="CC(C)c1nc([C@H]2CC[C@@H](c3nnc4n3-c3ccc(Cl)cc3CN(C)C4)CC2)no1 [Example 96]" test_system="human V1a receptor (Homo sapiens, UniProt P37288)" endpoint_result=204
compound="CC(C)(C)OC(=O)N1Cc2cc(Cl)ccc2-n2c(nnc2[C@H]2CC[C@H](c3noc(CO)c3CO)CC2)C1 [Example 108]" test_system="human V1a receptor (Homo sapiens, UniProt P37288)" endpoint_result=12.6
compound="Cc1nc([C@H]2CC[C@H](c3nnc4n3-c3ccc(Cl)cc3CN(C(=O)OC(C)(C)C)C4)CC2)no1 [Example 72]" test_system="human V1a receptor (Homo sapiens, UniProt P37288)" endpoint_result=0.708

Lookup result for Cc1onc([C@H]2CC[C@H](c3nnc4n3-c3ccc(Cl)cc3CNC4)CC2)c1F [Example 46] ; measured Ki: 8.51

Lookup result for CN1Cc2cc(Cl)ccc2-n2c(nnc2[C@H]2CC[C@H](c3nccs3)CC2)C1 [Example 15] ; measured Ki: 3.31

Lookup result for Cc1cc(C)n([C@H]2CC[C@H](c3nnc4n3-c3ccc(Cl)cc3CNC4)CC2)n1 [Example 116] ; measured Ki: 72.4

Lookup result for Cc1cnc([C@H]2CC[C@H](c3nnc4n3-c3ccc(Cl)cc3CN(C(=O)OC(C)(C)C)C4)CC2)o1 [Example 7] ; measured Ki: 0.603

Lookup result for Cc1cc(C)n([C@H]2CC[C@H](c3nnc4n3-c3ccc(Cl)cc3CN(C(=O)OC(C)(C)C)C4)CC2)n1 [Example 115] ; measured Ki: 0.17
